System: CHO
ASSAY PROCEDURE: Cytotoxicity against CHO cells assessed as growth inhibition after 48 hrs by MTS assay in presence of aminoguanidine
Format: cell-based, Cricetulus griseus
ASSAY SETUP: chinese hamster, cho
ENDPOINT LABEL: IC10 (nM)
Give bare numbers, in nM.

Reference set (2 entries):
Cl.NCCCCNCCCCNCc1cccc(CNCCCCNCCCCN)c1 :: 10
Cl.NCCCCNCCCCNCCCCNCc1cccc(CNCCCCNCCCCNCCCCN)c1 :: 10

# batch size: 2; output IC10 per entry
1. Cl.NCCCCNCCCCNCc1ccc(CNCCCCNCCCCN)cc1
2. CNCCCCNCCCCNCc1cc(CNCCCCNCCCCNC)cc(CNCCCCNCCCCNC)c1.Cl

[A]
1: 1; 2: 10000

----------
Tested on: CHO
ASSAY PROCEDURE: Cytotoxicity against CHO cells assessed as growth inhibition after 48 hrs by MTS assay in presence of aminoguanidine
Type: cell-based, Cricetulus griseus
ASSAY SETUP: chinese hamster, cho
So I've got a bunch of compounds here, and I need their IC10 values.
Give bare numbers, in µM.

# batch size: 2; output IC10 per entry
1. Cl.NCCCCNCCCCNCc1cc(CNCCCCNCCCCN)cc(CNCCCCNCCCCN)c1
2. Cl.NCCCCNCCCCNCCCCNC(=O)c1cc(C(=O)NCCCCNCCCCNCCCCN)cc(C(=O)NCCCCNCCCCNCCCCN)c1

[A]
1: 10; 2: 1

----------
ASSAY PROCEDURE: Selectivity ratio of IC50 for polyamine transport-deficient CHO-MG cells to IC50 for CHO cells
Assay type: ADME, cell-based, Cricetulus griseus
ASSAY SETUP: chinese hamster, polyamine transport-deficient CHO-MG cells and CHO cells; read-out: Ratio IC50
We use 300 as the dividing line for selectivity ratio: on or above the line is Yes, below is No.

Consider the worked cases shown below.
Cl.NCCCCNCCCCNCc1ccc(CNCCCCNCCCCN)cc1 :: Yes
NCCCCNCCCCNCc1c2ccccc2cc2ccccc12 :: No

[Q] Reported selectivity ratio reaches at least 300 for `Cl.NCCCCNCCCCNCCCCNCc1cccc(CNCCCCNCCCCNCCCCN)c1` ?
[A] Yes

[Q] Reported selectivity ratio reaches at least 300 for `Cl.NCCCCNCCCCNCCCCNC(=O)c1cc(C(=O)NCCCCNCCCCNCCCCN)cc(C(=O)NCCCCNCCCCNCCCCN)c1` ?
[A] No

[Q] Reported selectivity ratio reaches at least 300 for `Cl.NCCCCNCCCCNCc1cccc(CNCCCCNCCCCN)c1` ?
[A] Yes

----------
ASSAY PROCEDURE: Cytotoxicity against human L3.6PL cells assessed as cell viability at 0.1 uM after 48 hrs by MTS assay in presence of aminoguanidine relative to control
Assay type: cell-based
ASSAY SETUP: read-out: Activity
ENDPOINT LABEL: viability at 48 h, 0.1 µM

[Q] So what's the measured viability at 48 h, 0.1 µM for this one? `Cl.NCCCCNCCCCNCc1cccc(CNCCCCNCCCCN)c1`
[A] 8%

----------
ASSAY PROCEDURE: Cytotoxicity against human L3.6PL cells assessed as cell viability at 0.01 uM after 48 hrs by MTS assay in presence of aminoguanidine relative to control
Format: cell-based
ASSAY SETUP: read-out: Activity
ENDPOINT LABEL: viability at 48 h, 0.01 µM (%)
Answers are plain numbers, in %.

[Q] So what's the measured viability at 48 h, 0.01 µM for this one? `Cl.NCCCCNCCCCNCCCCNCc1cccc(CNCCCCNCCCCNCCCCN)c1`
[A] 8
